measurement target: EPHB1 (UniProt P54762)
Sequence (P54762 whole entry, looked up): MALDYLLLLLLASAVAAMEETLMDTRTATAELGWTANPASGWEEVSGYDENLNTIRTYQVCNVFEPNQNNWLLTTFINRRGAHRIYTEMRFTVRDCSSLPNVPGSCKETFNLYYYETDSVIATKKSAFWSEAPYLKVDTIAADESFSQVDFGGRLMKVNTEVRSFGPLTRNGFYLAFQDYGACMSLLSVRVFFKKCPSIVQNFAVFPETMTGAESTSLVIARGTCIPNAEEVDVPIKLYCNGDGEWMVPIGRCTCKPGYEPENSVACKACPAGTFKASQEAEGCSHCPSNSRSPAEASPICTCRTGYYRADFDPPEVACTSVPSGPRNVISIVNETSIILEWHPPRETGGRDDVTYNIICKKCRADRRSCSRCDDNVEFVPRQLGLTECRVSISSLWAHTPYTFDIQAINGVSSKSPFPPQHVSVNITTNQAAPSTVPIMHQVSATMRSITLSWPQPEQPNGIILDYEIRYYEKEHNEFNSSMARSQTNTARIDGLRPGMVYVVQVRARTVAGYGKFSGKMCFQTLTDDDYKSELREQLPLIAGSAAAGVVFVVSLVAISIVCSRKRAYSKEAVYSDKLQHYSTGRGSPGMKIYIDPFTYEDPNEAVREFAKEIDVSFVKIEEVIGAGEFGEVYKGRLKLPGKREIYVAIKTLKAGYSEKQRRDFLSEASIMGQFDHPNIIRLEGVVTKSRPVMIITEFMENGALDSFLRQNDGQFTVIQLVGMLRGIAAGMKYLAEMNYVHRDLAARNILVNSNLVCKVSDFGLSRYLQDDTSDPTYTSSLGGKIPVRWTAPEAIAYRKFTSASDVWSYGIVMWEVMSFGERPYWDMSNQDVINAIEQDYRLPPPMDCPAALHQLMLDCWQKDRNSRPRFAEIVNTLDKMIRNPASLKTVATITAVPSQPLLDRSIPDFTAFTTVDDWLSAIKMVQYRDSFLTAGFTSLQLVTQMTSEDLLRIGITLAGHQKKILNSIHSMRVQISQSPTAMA
procedure details: phosphorylation enrichment, bacterial display (enrichment ratio); higher = better substrate or ligand; peptides without Tyr show the background;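 also: 11-residue human phosphosite peptides and single-mutation variants displayed on the E. coli surface, counted by deep sequencing, each peptide's frequency after selection divided by its frequency in the unselected input library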;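 also: frequency after pTyr selection over input frequency; kinase dosed for 20-30% of maximal phosphorylation in three min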
measured endpoint: phosphorylation enrichment
Reply: number alone, nothing else.

QUERY: Reported phosphorylation enrichment, sequence ANSSFHSTRSA [NUMA1_Y1836_Y1836H] : ____
RESULT: 0.436

QUERY: Reported phosphorylation enrichment, sequence KFVKMYDNHQL [MYO9A_Y203_YF] : ____
RESULT: 0.442

QUERY: Reported phosphorylation enrichment, sequence DKEKWYPLGTS [PIK3C2G_Y1438_N1442T] : ____
RESULT: 0.544

QUERY: Reported phosphorylation enrichment, sequence PLLLSYYLIKW [NUP160_Y773] : ____
RESULT: 1.14

QUERY: Reported phosphorylation enrichment, sequence RRGTRYMFSRP [RPL21_Y13] : ____
RESULT: 0.782

QUERY: Reported phosphorylation enrichment, sequence VYSTDCYRVGG [NTRK2_Y706_Y706C] : ____
RESULT: 2.13

QUERY: Reported phosphorylation enrichment, sequence ARLEYCENEKK [IRS1_Y47_Y47C] : ____
RESULT: 0.552

QUERY: Reported phosphorylation enrichment, sequence DLAGRYYALKS [CKB_Y173] : ____
RESULT: 0.406

QUERY: Reported phosphorylation enrichment, sequence DRQASYLDKVR [KRT16_Y131_L128Q] : ____
RESULT: 0.39

QUERY: Reported phosphorylation enrichment, sequence DQGEQYKKELE [LMNA_Y259_V256G] : ____
RESULT: 0.801

QUERY: Reported phosphorylation enrichment, sequence EEVPLYESATT [DCC_Y809_G805E] : ____
RESULT: 2.19

QUERY: Reported phosphorylation enrichment, sequence AKAEIYEMRPL [COX10_Y97] : ____
RESULT: 11

QUERY: Reported phosphorylation enrichment, sequence KVFRVYQGQQP [MUTYH_Y494] : ____
RESULT: 0.308

QUERY: Reported phosphorylation enrichment, sequence FDAHIYEGCVI [PRKCD_Y64_R67C] : ____
RESULT: 0.656

QUERY: Reported phosphorylation enrichment, sequence MDDDQYALLTT [EFCAB6_Y675] : ____
RESULT: 0.677

QUERY: Reported phosphorylation enrichment, sequence EQKKFYNAVKK [SCN5A_Y1495_M1498V_YF] : ____
RESULT: 0.417

QUERY: Reported phosphorylation enrichment, sequence TDHLQYFDSNK [ARAP1_Y359_R358Q] : ____
RESULT: 0.721

QUERY: Reported phosphorylation enrichment, sequence YRASYYRRGDR [LTK_Y677] : ____
RESULT: 0.446

QUERY: Reported phosphorylation enrichment, sequence IIEDPYFGNDF [ACP1_Y132_S137F_YF] : ____
RESULT: 0.664

QUERY: Reported phosphorylation enrichment, sequence SNKLTYGTMVF [ACOX1_Y275] : ____
RESULT: 0.505

QUERY: Reported phosphorylation enrichment, sequence EPTPGYEVSQR [TSC2_Y1788_G1791S] : ____
RESULT: 0.434

QUERY: Reported phosphorylation enrichment, sequence FRPPFYHRNCM [HGD_Y334_YF] : ____
RESULT: 0.417

QUERY: Reported phosphorylation enrichment, sequence FEREQYADRAR [RBM4_Y355_YF] : ____
RESULT: 0.414

QUERY: Reported phosphorylation enrichment, sequence TVFSDYLHPQY [CCPG1_Y569] : ____
RESULT: 0.727

QUERY: Reported phosphorylation enrichment, sequence FAGRDYSLDEF [MYOF_Y1705_G1701A_YF] : ____
RESULT: 0.433

QUERY: Reported phosphorylation enrichment, sequence KQFWRYFPGNL [SLC25A4_Y112_A114P] : ____
RESULT: 0.625

QUERY: Reported phosphorylation enrichment, sequence LTFDEYRNISQ [ANXA3_Y216] : ____
RESULT: 1.01

QUERY: Reported phosphorylation enrichment, sequence GARGRYIMGGP [TNK1_Y277_V278I] : ____
RESULT: 0.39

QUERY: Reported phosphorylation enrichment, sequence FEEDSYVTRSQ [RET_Y905_K907T_YF] : ____
RESULT: 0.651

QUERY: Reported phosphorylation enrichment, sequence TKLKDYYIFNK [CCDC42_Y149_A144T] : ____
RESULT: 0.811

QUERY: Reported phosphorylation enrichment, sequence TNFPLYLRSLE [MTM1_Y71_R69P_YF] : ____
RESULT: 0.685

QUERY: Reported phosphorylation enrichment, sequence RKLASYRSCLL [DHX37_Y1080] : ____
RESULT: 0.321

QUERY: Reported phosphorylation enrichment, sequence FADPFYDFEIE [ZC3H18_Y372_YF] : ____
RESULT: 0.785

QUERY: Reported phosphorylation enrichment, sequence LLQEWYMIISR [HUWE1_Y4066_R4063Q] : ____
RESULT: 2.11

QUERY: Reported phosphorylation enrichment, sequence LFMGDYVGRGY [PPP2CA_Y86_D88G] : ____
RESULT: 2.15

QUERY: Reported phosphorylation enrichment, sequence AAVDEYLEFRR [FAM221A_Y17_YF] : ____
RESULT: 0.395

QUERY: Reported phosphorylation enrichment, sequence FDNPVCQKTTE [LDLR_Y828_Y828C] : ____
RESULT: 0.485

QUERY: Reported phosphorylation enrichment, sequence QNTVDYYDLYG [PTPN11_Y62_G60V] : ____
RESULT: 4.44

QUERY: Reported phosphorylation enrichment, sequence IAAEFYDNLPH [DEGS1_Y284_YF] : ____
RESULT: 0.531

QUERY: Reported phosphorylation enrichment, sequence QFQEKYKQVEQ [HCN4_Y531_YF] : ____
RESULT: 0.663

QUERY: Reported phosphorylation enrichment, sequence VEGIGYDFIPT [CBS_Y308] : ____
RESULT: 0.579

QUERY: Reported phosphorylation enrichment, sequence PKEQKYSFLQN [GH1_Y68] : ____
RESULT: 0.465

QUERY: Reported phosphorylation enrichment, sequence NFYEYYVDDPP [GCHFR_Y48] : ____
RESULT: 5.35

QUERY: Reported phosphorylation enrichment, sequence IMNLLYHVVGW [GBA_Y412_T408M] : ____
RESULT: 4.93

QUERY: Reported phosphorylation enrichment, sequence KACKHYLTKRT [ZBTB5_Y118_T121K] : ____
RESULT: 0.493

QUERY: Reported phosphorylation enrichment, sequence VNFDYYTVNLG [GFPT1_Y367_D366Y] : ____
RESULT: 6.6

QUERY: Reported phosphorylation enrichment, sequence SDVCMYRKNTY [SYNE2_Y570_I574T] : ____
RESULT: 0.477

QUERY: Reported phosphorylation enrichment, sequence FGISGYVVDSV [MAP2K3_Y214_L215V] : ____
RESULT: 0.543

QUERY: Reported phosphorylation enrichment, sequence EEKKKYFDTKI [CASP5_Y103_YF] : ____
RESULT: 0.429

QUERY: Reported phosphorylation enrichment, sequence RKGGSYTQAAS [HLA-A_Y344] : ____
RESULT: 0.446

QUERY: Reported phosphorylation enrichment, sequence STSKTYVISRT [RBBP6_Y87] : ____
RESULT: 0.387

QUERY: Reported phosphorylation enrichment, sequence PVGVLYKVKVY [PTS_Y128] : ____
RESULT: 1.06

QUERY: Reported phosphorylation enrichment, sequence TFEFKYPEGSS [TGM4_Y440_YF] : ____
RESULT: 0.437

QUERY: Reported phosphorylation enrichment, sequence VPLLEYFWDIF [CDAN1_Y712_R714W_YF] : ____
RESULT: 0.455

QUERY: Reported phosphorylation enrichment, sequence LTYHMYADPNF [SOS1_Y618] : ____
RESULT: 4.48

QUERY: Reported phosphorylation enrichment, sequence IVLRSYPASDH [NID2_Y449_G453D] : ____
RESULT: 0.543

QUERY: Reported phosphorylation enrichment, sequence ILCTVYAFKTR [GRM3_Y754] : ____
RESULT: 0.577

QUERY: Reported phosphorylation enrichment, sequence AGIKAYQSCLQ [ADGRA2_Y377_T375K] : ____
RESULT: 0.583
